test system: PPARg homodimer (NR concentration 180 nM); test: PBM binding z-score (relative to random genomic background probes); higher = stronger binding; sequences stand for … in GC…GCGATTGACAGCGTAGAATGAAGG
Classification field. Basis: PBM binding z-score. Definitions: lower bin (below 0.4), middle bin (0.4 to below 1), upper bin (1 or more)

The examples below pair each entry with its known result.
Each sequence maps to one class by PBM binding z-score. Which class for "GCTCGGAGGACAAGGTCAGAGTTTTGTCCGTAGA" ?
middle bin

Which category does the recorded PBM binding z-score put "CGTCCAAGTTCAAGGTAACGTAACAGAAAGCAGC" in?
upper bin

Please classify: "TCTCGGAGGACACGAAGGTCAGGGCTTTCCAGAG"
upper bin

Returns: class label. Input: "TCGAGTAGGTTAGTCGGCGCATTCAGCCAACATA"
lower bin

Please classify: "ACTTACGGGTCAACGAGGTTTTAGCACGCGTATA"
upper bin

---
Category lookup for the sequence "CCGACTGGGCCATCAGGTCATTGATATCAACGTT"
middle bin

Category of "ACTATTAGTTGAGACGAGGGCAGCCGATAGGTTG" :
middle bin

Which class holds "CCTTACGGGTCACTGACAGGTTATCGCATTTGGA" ?
upper bin

Note: place this sequence into its band. Item: "TCTTGTAGATCAAAGGTTAAGAGAGCCGAAGCCT"
middle bin

Which class does "ACTTACGGGCCAACGAGGTTATAGCACGCGTATA" fall in?
lower bin

Quick check: band for "CCTAGCTGGCCAGGGTCACTCAAGCATTTCGCTT"
middle bin

Which PBM binding z-score band matches "TGAATGAGGTTAAAGATCAAGGAACGTGGCGTCG" ?
lower bin

----------
system: PPARa:RXRa (NR concentration 270 nM, RXRa partner concentration 90 nM); assay: PBM binding z-score (relative to random genomic background probes); higher = stronger binding; sequences stand for … in GC…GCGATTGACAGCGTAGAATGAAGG
Classification field: true = PBM binding z-score at or over 5; false = PBM binding z-score under 5.

Completed entries (count: 5):
Say whether "ACTTACGGGGCAACGAGGTTATAGCACGCGTATA" shows PBM binding z-score of 5 or more.
false

Say whether "ATATGTAGGTTAGGTGGGGTCATTCAGACTAGGC" shows PBM binding z-score of 5 or more.
true

Given the entry "AGAATGAGGTTAAGATCAGGGTAACAGAATACAT" , answer whether its PBM binding z-score meets or surpasses 5.
false

Entry "GCTACAGGGTCAAGGCCAGAGTACGCGTATTGAT" : is its PBM binding z-score no less than 5?
true

Is the recorded value of PBM binding z-score equal to or greater than 5 for this sequence? "ATCTCTAAGTAAGACTCAGTTCAGTGAAGAACGC"
false

Next:
For this sequence, is measured PBM binding z-score 5 or higher? "GCTCGGAGGACAAGTTCAGAGCTTTGTCCGTAGA"
false

Does the sequence "CAATCTAGGTCAAGGTCAAAGTCGGTTTGTGCCA" have recorded PBM binding z-score that is 5 or more?
true

Please tell me: is the sequence "CGAACTAGGTCAGAACAGGACAGTAAAGGATGAT" at or over 5 in terms of PBM binding z-score?
false

Decide: PBM binding z-score of "TCTTGTAGATCAATAGAGTTTAAGAAAGTGCGCT" >= 5?
false

Determine whether measured PBM binding z-score meets or exceeds 5 for "GCTTACGGGGCAAAGGTTATAGCATGAATAGAAT"
true

Would you say "CATCCAAGGTCAAGGTCAGTGAAAGAGACTCGAA" shows PBM binding z-score at minimum 5?
true

Could you verify whether the entry "CAAACTAGGTCACCGGAAGGTCAAAGTACGCATG" shows PBM binding z-score of no less than 5?
true

----------
Hi there, I'd appreciate the recorded PBM binding z-score for every entry that follows.
tested on: PPARg homodimer (NR concentration 180 nM); experiment: PBM binding z-score (relative to random genomic background probes); higher = stronger binding; sequences stand for … in GC…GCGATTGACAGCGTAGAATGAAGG
Numbers only.

Below, 5 sequences whose answers are already recorded.
Form field: reported PBM binding z-score of "TCTGGTAGATCAAGCAGGTTAAGAAAGCCTGAGT"
-0.462

Need PBM binding z-score, item "CCTCGGAGGCCAACAGGAGGTCAGAGCTGCCAGA"
1.58

So what does the record say about PBM binding z-score for "GCTAGTTGGTCCGTAAAAGGTCACACACCGGTCG" ?
2.89

Request the reported PBM binding z-score associated with "TAGCCTAGGTGATGGGCCAGTATACCACGCGAAC"
-0.49

Fill in: PBM binding z-score of "ATACCTAGGTGATCGTGAGGTCGTTGATACTAAC" is ___
0.783

Please supply PBM binding z-score for each of the following items, keeping them in order.
1. GCTGCTAGGTCAACTGATGGTCAGCCAAAGCTCG
2. ATCGAAAGGTCGACGGGGTGAGTATACACCGTTT
3. GCTAGCAGGCCATATGGGTCACTCAATGACGGGC

1.57
2.18
-0.0235

Here are 8 sequences. What values of PBM binding z-score were reported for them?
1. CCTAGCAGGCCAATCTCGGTCACTCAAGGCTTGA
2. TTACCTAGGTGAAAGGTCGTTGATGCACGCCTTG
3. AATACTGGGTCACTAGGCCAGAGTAGGTACGAAT
4. TCTTGTCGATCAACAGGAGGTTAAGAAAGATCGA
5. GCAGACAAGTGAAACGCAGGTAACTCAGGGTGGC
6. CCTATCAGGCCAGGGTCACTCAAGCATTTCGCTT
7. TCGAGTAGGTTAGGAGCATTCAGAATGGCGTCGA
8. CCAACTGGGGCATAAGGTTACCATAAGCCAGCCC

[0.0271, 1.73, 1.9, -0.727, -0.82, 1.28, -0.371, 0.423]

Provide reported PBM binding z-score for each item, in the same order as listed.
1. CGTCCAATGTCAGAGAGGTCAGTGAATGCCGAGT
2. ATCGAGAGGTCGAAGGTGAGTATACCCACCCGAA
3. TCTAGGTGGTCACGGAGGTCACACACGACGGGTA
4. CCGACTGGGGCATAAGGTAACCATAAGCCAGCCC

1: 3.15; 2: 0.129; 3: 2.75; 4: 0.375

----------
tested on: PPARg:RXRa IVT, anti-PPARg (NR concentration 270 nM, RXRa partner concentration 90 nM); assay: PBM binding z-score (relative to random genomic background probes); higher = stronger binding; sequences stand for … in GC…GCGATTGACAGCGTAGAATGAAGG
parameterMeasured: PBM binding z-score
Give bare numbers.

Lab request: please report PBM binding z-score under test system PPARg:RXRa IVT, anti-PPARg (NR concentration 270 nM, RXRa partner concentration 90 nM) for "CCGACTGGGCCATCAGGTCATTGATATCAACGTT"
3.51

Which PBM binding z-score is reported with PPARg:RXRa IVT, anti-PPARg (NR concentration 270 nM, RXRa partner concentration 90 nM) for this entry: "TCTCGGAGGAGACGAAGGTCAGAGCTTTCCAGAG" ?
-0.157

# query: PBM binding z-score | item "CGAACTAGGTCATAACAGGACAGTGAAGGATGAT" | system: PPARg:RXRa IVT, anti-PPARg (NR concentration 270 nM, RXRa partner concentration 90 nM)
8.05

Enter reported PBM binding z-score observed with PPARg:RXRa IVT, anti-PPARg (NR concentration 270 nM, RXRa partner concentration 90 nM) for "TCTAGTAGATCAAGCAGGTTAAGAAAGCCTGAGT"
0.398

So what PBM binding z-score did "GCTGCTAGGTCAGGTTGGTCAGCTATCGGGTACG" get with PPARg:RXRa IVT, anti-PPARg (NR concentration 270 nM, RXRa partner concentration 90 nM)?
2.58

State recorded PBM binding z-score for all listed sequences.
1. CGTCCAAGGTCAAAGGAGGTCAGTGAAGACAGAT
2. CCGAGTAGGTTATGGGGCATCCAGGCAACGGTGA
3. CTCGAAAGGTCGTGCACAGGTGAGTATACCAAAC
4. TCTAGTTGGTCACGGAGGTCACACAGGACGGGTA
5. GCTTGTAGATCAAGGTTTAGAAAGACTAAGCTAA

[4.71, 3.47, 2.21, 4.28, 0.361]

Quick batch: PBM binding z-score for everything below.
1. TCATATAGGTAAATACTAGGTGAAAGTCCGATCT
2. ACTCGGAGGACCAAGGTCAGAGCTACGCCAGTGA

1. 4.37
2. 0.431

Record PBM binding z-score per entry; entries follow.
1. TCTTGTAGTTCAGCAGGTTAAGAAAGCTGGCCAA
2. CCTGCTAGGTCAATGGTTAGCTAAAGCAGCTCGC
3. TTACCAAGGTGAAAGTCGTTGATCCCTCTGTAGA
4. TCTAGTTGGTCACGAAGGTCACACACGACGGGTA
5. ATCGAAAGGTCGAGGTGAATATAGAGAAAGGGAA
6. GCTGCTAGTTCAGGTTGGTCAGCTAACGGGTACG

0.541
3.57
2.87
4.36
2.9
-0.56

Would you mind listing PBM binding z-score for each of the following sequences?
1. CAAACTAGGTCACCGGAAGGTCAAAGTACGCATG
2. CATAGCAGGCCAATCTGGGTCACTCAAGGCTTGA
3. AGACCGAGGGCAATGAGTTGATAGCACGGGTGGC
4. AATGCAGGGTCATCGTAGGCCAGAGTACGCACAG

1. 8.9
2. 5.66
3. 0.251
4. 4.24
